System: LOX IMVI
Assay: NCI tumour cell line growth inhibition, 48 h
The source made the active and inactive calls. Cut-off read from the data, not from the text of the source: active = GI50 up to about 1.1 µM and inactive = higher.
Outcomes: yes for active, no for inactive

> print(dat)
                                    molecule  measurement.target  qualitative.label
 1  CC(C)(C)c1cc(C(O)(C(=O)O)C(=O)O)cc(C(C)(C)C)c1O            LOX IMVI                 no
 2     Cc1nc2ccccc2c(=O)n1NC(=O)c1ccc(CS)cc1            LOX IMVI                yes
 3    CN1CCOC1(C)c1ccccc1 (stereo not given)            LOX IMVI                 no
 4  O=C1C2C3C=C4c5ccccc5N(c5ccccc5)C4(C2C(=O)N1Cc1ccccc1)C1C(=O)N(Cc2ccccc2)C(=O)C31 (stereo not given)            LOX IMVI                 no
 5  O=C1Nc2nc3ccccc3n2N=C2CCCC12 (stereo not given)            LOX IMVI                 no
 6       O=S1(=O)OCCOS(=O)(=O)C1(F)Cc1ccccc1            LOX IMVI                 no
 7  COc1cc(C2c3cc4c(cc3OC(NNC(N)=S)C2C)OCO4)cc(OC)c1OC (stereo not given)            LOX IMVI                yes
 8       COc1ccc(OCC(=O)O)c(C(=O)CCC(=O)O)c1            LOX IMVI                 no
 9   O=S1(=O)CC#CC[C@@H](CO)[C@@H](CO)CC#CC1            LOX IMVI                 no
10  CN(C)c1ccc(C=c2c3ccccc3n3c2cc(-c2ccc(Cl)cc2)[n+]3C)cc1            LOX IMVI                yes

Sourced from ChEMBL document CHEMBL1201862
